All values here come from patent US10278971B2.

- PROTOCOL SUMMARY: First-in-human study: pharmacokinetics, safety and tolerability
- Type: in vivo
- CONDITIONS USED: both sexes, human, plasma; single intravenous dose 20 mg
METRIC NAME: Cmax (ng/mL)
Report the value in ng/mL with no unit label.

Noted for Nc1ccn([C@@H]2C(F)=C(CO)[C@@H](O)[C@H]2O)c(=O)n1 : its Cmax reads 1140

---

- PROTOCOL SUMMARY: Open-label dose-ranging study: pharmacokinetics, safety and tolerability of oral doses
- Type: in vivo, human
- CONDITIONS USED: human, in vivo, po, 100 mg, AUC0-24
- Procedure: In an open-label, dose-ranging study, the pharmacokinetics (PK) of RX-3117 at various oral doses was evaluated. […] The efficacy, safety and tolerability of RX-3117 at various doses and frequencies were evaluated (see Example 4, above). […]
METRIC NAME: AUC(0-t)
Your reply should be a number followed by the unit it is expressed in.

Item: Nc1ccn([C@@H]2C(F)=C(CO)[C@@H](O)[C@H]2O)c(=O)n1 | AUC(0-t): 3290 ng·h/mL
